System: MDA-MB-468
Test: Cytotoxicity against human MDA-MB-468 cells assessed as growth inhibition after 4 days by XTT assay
Format: functional, cell-based
Conditions: MDA-MB-468, 96 h
IC50 values for the compounds below.
Give the quantity in µM, number only.

Known results for compounds:
O=S(=O)(Cc1ccccc1F)N1CCc2ccccc2[C@@H]1c1c[nH]c2ccccc12 : 12.7
O=S(=O)(Cc1ccccc1)N1CCc2ccccc2[C@@H]1c1c[nH]c2ccccc12 : 11.7
O=S(=O)(Cc1cccc(F)c1)N1CCc2ccccc2[C@@H]1c1c[nH]c2ccccc12 : 14.2
O=S(=O)(Cc1ccccc1)N1CC=Cc2ccccc2[C@@H]1c1c[nH]c2ccccc12 : 14.7
O=S(=O)(Cc1ccccc1F)N1CCc2ccccc2[C@H]1c1c[nH]c2ccccc12 : 19.2
O=S(=O)(Cc1ccccc1)N1CCc2ccccc2[C@H]1c1c[nH]c2ccccc12 : 13.2

From here, focus on the item given below.
Problem: What measured IC50 goes with `O=S(=O)(Cc1cccc(C(F)(F)F)c1)N1CCc2ccccc2[C@H]1c1c[nH]c2ccccc12` ?
Result: 22.2

====

Test system: MDA-MB-468
Assay: Cytotoxicity against human MDA-MB-468 cells assessed as growth inhibition after 4 days by XTT assay
Assay type: functional, cell-based
Conditions: MDA-MB-468, 96 h
REPORTED_ENDPOINT: IC50 (µM)
Record the value in µM, omitting the unit from your answer.

O=S(=O)(Cc1cccc(F)c1)N1CCc2ccccc2[C@H]1c1c[nH]c2ccccc12 : 17.2
O=S(=O)(Cc1ccccc1)N1C=Cc2ccccc2C1c1c[nH]c2ccccc12 (racemic) : 14.8
O=S(=O)(Cc1ccc(F)cc1)N1CCc2ccccc2[C@H]1c1c[nH]c2ccccc12 : 25.7
O=S(=O)(Cc1ccc(F)cc1)N1CCc2ccccc2[C@@H]1c1c[nH]c2ccccc12 : 11.2
O=S(=O)(Cc1ccccc1)N1CCc2ccccc2[C@@H]1c1n[nH]c2ccccc12 : 9.5

Problem: Which measured IC50 value corresponds to `O=S(=O)(Cc1ccc(C(F)(F)F)cc1)N1CCc2ccccc2[C@@H]1c1c[nH]c2ccccc12` ?
Result: 13.6

====

Assay: Selectivity ratio of IC50 for human MCF10A cells to IC50 for human T98G cells
Format: ADME, cell-based, MCF-10A
Settings: MCF10A cells versus T98G cells
REPORTED_ENDPOINT: selectivity ratio

Problem: Which selectivity ratio is listed for `O=S(=O)(Cc1ccccc1)N1Cc2ccccc2[C@@H]1c1c[nH]c2ccccc12` ?
Result: > 3.2

====

Test: Selectivity ratio of IC50 for human MCF10A cells to IC50 for human T47D cells
Assay type: ADME, cell-based, MCF-10A
Conditions: MCF10A cells versus T47D cells
REPORTED_ENDPOINT: selectivity ratio

Problem: What selectivity ratio value was documented for this molecule, `O=S(=O)(Cc1ccccc1)N1Cc2ccccc2[C@@H]1c1c[nH]c2ccccc12` ?
Result: > 4.8

====

Test system: MDA-MB-468
Assay: Cytotoxicity against human MDA-MB-468 cells assessed as growth inhibition after 4 days by XTT assay
Type: functional, cell-based
Details: MDA-MB-468, 96 h
List of pIC50 values.
pIC50 field: float, defined as -log10 of concentration (mol/L).

Some solved entries appear below for comparison.
O=S(=O)(Cc1ccccc1C(F)(F)F)N1CCc2ccccc2[C@H]1c1c[nH]c2ccccc12 : 4.78
O=S(=O)(Cc1ccccc1)N1CCc2ccccc2[C@H]1c1n[nH]c2ccccc12 : 4.84
O=S(=O)(Cc1ccccc1C(F)(F)F)N1CCc2ccccc2[C@@H]1c1c[nH]c2ccccc12 : 4.83

Problem: For COc1cc2c(C3c4ccccc4C=CN3S(=O)(=O)Cc3ccccc3)c[nH]c2cn1 (racemic) , what is its reported pIC50?
Result: 4.90

Problem: Could you share which pIC50 value was measured for COc1nccc2c(C3c4ccccc4C=CN3S(=O)(=O)Cc3ccccc3)c[nH]c12 (racemic) ?
Result: 5.20

====

Test system: MDA-MB-231
Test: Cytotoxicity against human MDA-MB-231 cells assessed as growth inhibition after 4 days by XTT assay
Assay type: functional, cell-based
Conditions: MDA-MB-231, 96 h
REPORTED_ENDPOINT: IC50 (µM)
Answer with a number only, understood to be in µM.

Problem: Looking for the measured IC50 of `O=S(=O)(Cc1ccccc1)N1Cc2ccccc2[C@@H]1c1c[nH]c2ccccc12` , can you help?
Result: 3.5

====

System: MDA-MB-468
Assay: Cytotoxicity against human MDA-MB-468 cells assessed as growth inhibition after 4 days by XTT assay
Format: functional, cell-based
Settings: MDA-MB-468, 96 h
REPORTED_ENDPOINT: pIC50
# pIC50: negative log10 of molar concentration; output just the value

Some molecules with known pIC50 results, for comparison:
O=S(=O)(Cc1ccc(C(F)(F)F)cc1)N1CCc2ccccc2[C@H]1c1c[nH]c2ccccc12 : 4.68
O=S(=O)(Cc1cccc(C(F)(F)F)c1)N1CCc2ccccc2[C@@H]1c1c[nH]c2ccccc12 : 4.95

Problem: Param item = O=S(=O)(Cc1ccccc1)N1C=Cc2ccccc2C1c1c[nH]c2ncccc12 (racemic) ; retrieve measured pIC50.
Result: 5.21
